- MEASUREMENT PROTOCOL: In vitro cytotoxicity, MTT assay
- Assay type: cell-based
- MEASUREMENT PARAMETERS: human, HepG2 cells; HepG2, 200 μg/mL, 24 h, control = 100; read-out: Cell Viability
Answer each item with its documented viability at 24 h, 200 μg/mL.
Kindly report the value followed by its unit.

Take a look at these entries with their results.
# COMPOUND, RESULT
data = [
    ("CCc1ccc(NC(=S)NN=Cc2cc3cccc(C)c3nc2N2CCCCC2)cc1 [Compound 6k]", "107%"),
    ("Cc1ccc2nc(N3CCCCC3)c(C=NNC(=S)Nc3ccc(Cl)cc3)cc2c1 [Compound 5g]", "94.1%"),
    ("Cc1cccc2cc(C=NNC(=S)Nc3ccc(F)cc3)c(N3CCCCC3)nc12 [Compound 6j]", "94.8%"),
    ("Cc1cccc2cc(C=NNC(N)=S)c(N3CCCCC3)nc12 [Compound 6a]", "80.6%"),
    ("Cc1ccc2nc(N3CCCCC3)c(C=NNC(=S)Nc3ccccc3Cl)cc2c1 [Compound 5e]", "158%"),
    ("Cc1cccc2cc(C=NNC(=S)Nc3cccc(F)c3)c(N3CCCCC3)nc12 [Compound 6i]", "131%"),
]

Items follow; give viability at 24 h, 200 μg/mL for each.
1. Cc1cccc(C)c1NC(=S)NN=Cc1cc2cccc(C)c2nc1N1CCCCC1 [Compound 6d]
2. Cc1cccc2cc(C=NNC(=S)Nc3ccccc3)c(N3CCCCC3)nc12 [Compound 6b]
3. Cc1ccc2nc(N3CCCCC3)c(C=NNC(=S)Nc3c(C)cccc3C)cc2c1 [Compound 5d]

91.3%
92.8%
110%

###

Answer each item with its documented viability at 24 h, 100 μg/mL.
- MEASUREMENT PROTOCOL: In vitro cytotoxicity, MTT assay
- Assay type: cell-based
- MEASUREMENT PARAMETERS: human, HepG2 cells; HepG2, 100 μg/mL, 24 h, control = 100; read-out: Cell Viability
One number for each entry, in %.

# COMPOUND, QUANTITATIVE READOUT
data = [
    ("Cc1ccc2nc(N3CCCCC3)c(C=NNC(=S)Nc3cccc(Cl)c3)cc2c1 [Compound 5f]", 94.9),
    ("Cc1ccc2nc(N3CCCCC3)c(C=NNC(=S)Nc3ccccc3)cc2c1 [Compound 5b]", 107),
    ("Cc1ccc(NC(=S)NN=Cc2cc3cccc(C)c3nc2N2CCCCC2)c(C)c1 [Compound 6c]", 116),
    ("Cc1cccc2cc(C=NNC(N)=S)c(N3CCCCC3)nc12 [Compound 6a]", 86.3),
    ("Cc1cccc2cc(C=NNC(=S)Nc3ccccc3F)c(N3CCCCC3)nc12 [Compound 6h]", 110),
    ("Cc1ccc(NC(=S)NN=Cc2cc3cc(C)ccc3nc2N2CCCCC2)c(C)c1 [Compound 5c]", 109),
]

Items follow; give viability at 24 h, 100 μg/mL for each.
1. Cc1ccc2nc(N3CCCCC3)c(C=NNC(=S)Nc3ccccc3Cl)cc2c1 [Compound 5e]
2. Cc1cccc2cc(C=NNC(=S)NCCN3CCOCC3)c(N3CCCCC3)nc12 [Compound 6m]
3. Cc1cccc2cc(C=NNC(=S)Nc3cccc(Cl)c3)c(N3CCCCC3)nc12 [Compound 6f]

[97.2, 96.8, 110]
